Measured drug sensitivity score by item
tested on: Ba/F3 P210-BCR-ABL1 RUNX1-/mut (mouse); assay: drug sensitivity score (DSS) (DSS score); higher = more sensitive (stronger growth inhibition); extreme values may be limits of the assay
assayMetric: drug sensitivity score

>>> print(df.to_string())
                                   compound  quantitativereadout
0          NC(=S)N/N=C/c1ncccc1N [Triapine]                 5.05
1  CN(C)Cc1ccc(S(=O)(=O)n2ccc(/C=C/C(=O)NO)c2)cc1 [Resminostat]                 15.2
2  Nc1nc(Cl)nc2c1ncn2[C@H]1C[C@H](O)[C@@H](CO)O1 [Cladribine]                  3.8

* * *

tested on: Ba/F3 P210-BCR-ABL1 RUNX1wt/wt control (mouse); test: drug sensitivity score (DSS) (DSS score); higher = more sensitive (stronger growth inhibition); extreme values may be limits of the assay

molecularString	targetOfAssay	drug sensitivity score
C[C@H]1CNCCCN1S(=O)(=O)c1cccc2cncc(F)c12	Ba/F3 P210-BCR-ABL1 RUNX1wt/wt control (mouse)	0
COc1cc(C)[nH]c(=O)c1CNC(=O)c1c(C)n([C@H](C)C2CCOCC2)c2ccccc12	Ba/F3 P210-BCR-ABL1 RUNX1wt/wt control (mouse)	0
Cc1ccc(Nc2nccc(N(C)c3ccc4c(C)n(C)nc4c3)n2)cc1S(N)(=O)=O	Ba/F3 P210-BCR-ABL1 RUNX1wt/wt control (mouse)	0
Nc1nccc(-c2c(-c3ccc(F)cc3)ncn2C2CCCCC2)n1	Ba/F3 P210-BCR-ABL1 RUNX1wt/wt control (mouse)	0
CN1C(=O)N[C@H](Cc2c[nH]c3c(Cl)cccc23)C1=O	Ba/F3 P210-BCR-ABL1 RUNX1wt/wt control (mouse)	0
O=C(CCCCCCNC(=O)c1cnc(N(c2ccccc2)c2ccccc2)nc1)NO	Ba/F3 P210-BCR-ABL1 RUNX1wt/wt control (mouse)	6.25
COc1cc2c(Oc3ccc(NC(=O)C4(C(=O)Nc5ccc(F)cc5)CC4)cc3F)ccnc2cc1OCCCN1CCOCC1	Ba/F3 P210-BCR-ABL1 RUNX1wt/wt control (mouse)	0.55
CC[C@]12C=CCN3CC[C@@]4(c5cc([C@@]6(C(=O)OC)C[C@@H]7C[C@@H](C(C)(F)F)CN(Cc8c6[nH]c6ccccc86)C7)c(OC)cc5N(C)[C@H]4[C@@](O)(C(=O)OC)[C@@H]1OC(C)=O)[C@@H]32	Ba/F3 P210-BCR-ABL1 RUNX1wt/wt control (mouse)	3.55

* * *

system: Ba/F3 P210-BCR-ABL1 RUNX1-/mut (mouse); experiment: drug sensitivity score (DSS) (DSS score); higher = more sensitive (stronger growth inhibition); extreme values may be limits of the assay
Catalogue of drug sensitivity score readings, one per entry.

compound	targetOfAssay	drug sensitivity score
O=C(/C=C/c1cccnc1)NCCCCC1CCN(C(=O)c2ccccc2)CC1	Ba/F3 P210-BCR-ABL1 RUNX1-/mut (mouse)	20.5
CC(C)Oc1ccc(-c2nn([C@@H](C)c3oc4ccc(F)cc4c(=O)c3-c3cccc(F)c3)c3ncnc(N)c23)cc1F	Ba/F3 P210-BCR-ABL1 RUNX1-/mut (mouse)	1.2
Cc1ncc(Cl)cc1NCc1ccc(C(=O)N[C@@H](CC2CCCC2)C(=O)NC2CC2)s1	Ba/F3 P210-BCR-ABL1 RUNX1-/mut (mouse)	4
N#CCNC(=O)c1ccc(-c2ccnc(Nc3ccc(N4CCOCC4)cc3)n2)cc1	Ba/F3 P210-BCR-ABL1 RUNX1-/mut (mouse)	5.9
CNC(=O)c1cc(Oc2ccc(NC(=O)Nc3ccc(Cl)c(C(F)(F)F)c3)c(F)c2)ccn1	Ba/F3 P210-BCR-ABL1 RUNX1-/mut (mouse)	4.8
Cc1c(N)nc([C@H](CC(N)=O)NC[C@H](N)C(N)=O)nc1C(=O)N[C@H](C(=O)N[C@H](C)[C@@H](O)[C@H](C)C(=O)N[C@H](C(=O)NCCc1nc(-c2nc(C(=O)NCCC[S+](C)C)cs2)cs1)[C@@H](C)O)[C@@H](OC1OC(CO)C(O)C(O)C1OC1OC(CO)C(O)C(OC(N)=O)C1O)c1cnc[nH]1 (some centres undefined)	Ba/F3 P210-BCR-ABL1 RUNX1-/mut (mouse)	3.55
CC(C)C(=O)Nc1ccc([N+](=O)[O-])c(C(F)(F)F)c1 [Flutamide]	Ba/F3 P210-BCR-ABL1 RUNX1-/mut (mouse)	0
CCCS(=O)(=O)Nc1ccc(F)c(C(=O)c2c[nH]c3ncc(-c4ccc(Cl)cc4)cc23)c1F	Ba/F3 P210-BCR-ABL1 RUNX1-/mut (mouse)	0.85
CNC(=O)c1nn(C)c2c1C(C)(C)Cc1cnc(Nc3ccc(N4CCN(C)CC4)cc3)nc1-2	Ba/F3 P210-BCR-ABL1 RUNX1-/mut (mouse)	14.7
